target: Plasmin (Homo sapiens, UniProt P00747); assay: biochemical; details: Table IV, present compounds; plasmin, substrate S-2251; read-out: I50 S-2251
Sequence (P00747 581-810 limits assumed): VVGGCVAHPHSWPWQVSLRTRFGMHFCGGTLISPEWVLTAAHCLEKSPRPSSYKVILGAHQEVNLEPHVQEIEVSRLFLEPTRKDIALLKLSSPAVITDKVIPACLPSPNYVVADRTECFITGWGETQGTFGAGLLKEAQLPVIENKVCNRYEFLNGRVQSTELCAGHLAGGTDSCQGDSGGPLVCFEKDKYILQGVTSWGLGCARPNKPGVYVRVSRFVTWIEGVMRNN
Sequence (P00747 97-580 partner limits assumed): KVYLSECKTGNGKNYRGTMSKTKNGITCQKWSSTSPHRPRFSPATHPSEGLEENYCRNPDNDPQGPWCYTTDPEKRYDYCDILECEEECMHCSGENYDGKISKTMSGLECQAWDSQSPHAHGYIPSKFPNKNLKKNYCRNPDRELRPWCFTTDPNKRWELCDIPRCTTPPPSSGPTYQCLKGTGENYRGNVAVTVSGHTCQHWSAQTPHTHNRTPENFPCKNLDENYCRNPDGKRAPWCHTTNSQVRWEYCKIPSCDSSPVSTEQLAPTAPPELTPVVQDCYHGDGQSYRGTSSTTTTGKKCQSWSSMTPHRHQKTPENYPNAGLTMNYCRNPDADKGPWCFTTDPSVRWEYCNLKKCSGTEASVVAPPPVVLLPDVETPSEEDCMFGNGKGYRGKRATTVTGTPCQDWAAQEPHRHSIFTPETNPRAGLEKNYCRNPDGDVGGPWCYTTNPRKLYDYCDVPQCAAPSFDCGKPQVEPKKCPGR
measured-property: IC50 (µM)

- molecule: "CC1CCCN(C(=O)[C@H](CCCCN)NS(=O)(=O)c2cccc3c(N(C)C)cccc23)C1 (stereo partly shown)"
  target-of-assay: "Plasmin (Homo sapiens, UniProt P00747)"
  IC50 (µM): 2000

a = Cc1ccc(S(=O)(=O)N[C@H](CCCCN)C(=O)Nc2ccc(C(=O)c3ccccc3)cc2)cc1
b = NCCCC[C@H](NC(=O)c1ccccc1)C(N)=O
c = CCOC(=O)c1ccc(NC(=O)[C@H](CCCCN)NS(=O)(=O)c2ccc(C)cc2)cc1
Rank the items in ascending order with respect to IC50. Please respond by ranking the labels in the order requested. b, c, a
(b: 250 µM, c: 650 µM, a: 2000 µM)
